Reported IC50 values are given for each entry in this list.
# method: Cytostatic activity against human HCT116 cells after 72 hrs by MTT assay
# Assay type: functional, cell-based
# applied_conditions: HCT-116, 72 h
measured_parameter: IC50 (nM)

* COC(=O)c1ccc(O)c(/C=N/NC(=O)c2ccc3c4c(ccc3c2)N2Cc3c(ccc5cc(C(=O)N/N=C/c6cc(C(=O)OC)ccc6O)ccc35)N(C4)C2)c1 | 10300
* COc1cccnc1/C=N/NC(=O)c1ccc2c3c(ccc2c1)N1Cc2c(ccc4cc(C(=O)N/N=C/c5ncccc5OC)ccc24)N(C3)C1 | 85700
* O=C(N/N=C/c1cc(F)ccc1O)c1ccc2c3c(ccc2c1)N1Cc2c(ccc4cc(C(=O)N/N=C/c5cc(F)ccc5O)ccc24)N(C3)C1 | 640
* COc1ccc(O)c(/C=N/NC(=O)c2ccc3c4c(ccc3c2)N2Cc3c(ccc5cc(C(=O)N/N=C/c6cc(OC)ccc6O)ccc35)N(C4)C2)c1 | 50
* O=C(N/N=C/c1nccc2ccccc12)c1ccc2c3c(ccc2c1)N1Cc2c(ccc4cc(C(=O)N/N=C/c5nccc6ccccc56)ccc24)N(C3)C1 | 17700
* O=C(N/N=C/c1cc(O)ccc1O)c1ccc2c3c(ccc2c1)N1Cc2c(ccc4cc(C(=O)N/N=C/c5cc(O)ccc5O)ccc24)N(C3)C1 | 390
* O=C(N/N=C/c1ccccc1O)c1ccc2c3c(ccc2c1)N1Cc2c(ccc4cc(C(=O)N/N=C/c5ccccc5O)ccc24)N(C3)C1 | 390
* O=C(NN=C(c1ccccn1)c1ccccn1)c1ccc2c3c(ccc2c1)N1Cc2c(ccc4cc(C(=O)NN=C(c5ccccn5)c5ccccn5)ccc24)N(C3)C1 | 460
* Cc1ccc(O)c(/C=N/NC(=O)c2ccc3c4c(ccc3c2)N2Cc3c(ccc5cc(C(=O)N/N=C/c6cc(C)ccc6O)ccc35)N(C4)C2)c1 | 620

====

# method: Metal chelating activity of the compound assessed as formation of Ca2+ complex by UV-vis spectrometry
# Type: physicochemical
measured_parameter: Activity

- COc1ccc(O)c(/C=N/NC(=O)c2ccc3c4c(ccc3c2)N2Cc3c(ccc5cc(C(=O)N/N=C/c6cc(OC)ccc6O)ccc35)N(C4)C2)c1: Not Active
- Cc1ccc(O)c(/C=N/NC(=O)c2ccc3c4c(ccc3c2)N2Cc3c(ccc5cc(C(=O)N/N=C/c6cc(C)ccc6O)ccc35)N(C4)C2)c1: Not Active
- COC(=O)c1ccc(O)c(/C=N/NC(=O)c2ccc3c4c(ccc3c2)N2Cc3c(ccc5cc(C(=O)N/N=C/c6cc(C(=O)OC)ccc6O)ccc35)N(C4)C2)c1: Not Active

====

# Test system: A549
# method: Cytostatic activity against human A549 cells after 72 hrs by MTT assay
# Assay type: functional, cell-based
# applied_conditions: A549, 72 h
pIC50: −log10 of the molar value.
Outcome: Y for pIC50 of at least 6; N for anything lower.

• O=C(N/N=C/c1cc([N+](=O)[O-])ccc1O)c1ccc2c3c(ccc2c1)N1Cc2c(ccc4cc(C(=O)N/N=C/c5cc([N+](=O)[O-])ccc5O)ccc24)N(C3)C1 = N
• O=C(N/N=C/c1nccc2ccccc12)c1ccc2c3c(ccc2c1)N1Cc2c(ccc4cc(C(=O)N/N=C/c5nccc6ccccc56)ccc24)N(C3)C1 = N
• O=C(NN=C(c1ccccn1)c1ccccn1)c1ccc2c3c(ccc2c1)N1Cc2c(ccc4cc(C(=O)NN=C(c5ccccn5)c5ccccn5)ccc24)N(C3)C1 = N
• COC(=O)c1ccc(O)c(/C=N/NC(=O)c2ccc3c4c(ccc3c2)N2Cc3c(ccc5cc(C(=O)N/N=C/c6cc(C(=O)OC)ccc6O)ccc35)N(C4)C2)c1 = N
• O=C(N/N=C/c1cc(Cl)ccc1O)c1ccc2c3c(ccc2c1)N1Cc2c(ccc4cc(C(=O)N/N=C/c5cc(Cl)ccc5O)ccc24)N(C3)C1 = N
• O=C(N/N=C/c1cc(O)ccc1O)c1ccc2c3c(ccc2c1)N1Cc2c(ccc4cc(C(=O)N/N=C/c5cc(O)ccc5O)ccc24)N(C3)C1 = Y
• COc1ccc(O)c(/C=N/NC(=O)c2ccc3c4c(ccc3c2)N2Cc3c(ccc5cc(C(=O)N/N=C/c6cc(OC)ccc6O)ccc35)N(C4)C2)c1 = Y
• Cc1ccc(O)c(/C=N/NC(=O)c2ccc3c4c(ccc3c2)N2Cc3c(ccc5cc(C(=O)N/N=C/c6cc(C)ccc6O)ccc35)N(C4)C2)c1 = Y
• COc1cccnc1/C=N/NC(=O)c1ccc2c3c(ccc2c1)N1Cc2c(ccc4cc(C(=O)N/N=C/c5ncccc5OC)ccc24)N(C3)C1 = N

====

# reported IC50; entries follow
# method: Cytostatic activity against human CEM-DNR cells after 72 hrs by MTT assay
# Type: functional, cell-based
measured_parameter: IC50 (µM)

• O=C(N/N=C/c1cc(F)ccc1O)c1ccc2c3c(ccc2c1)N1Cc2c(ccc4cc(C(=O)N/N=C/c5cc(F)ccc5O)ccc24)N(C3)C1 = 4.25
• COc1cccnc1/C=N/NC(=O)c1ccc2c3c(ccc2c1)N1Cc2c(ccc4cc(C(=O)N/N=C/c5ncccc5OC)ccc24)N(C3)C1 = 6.71
• COC(=O)c1ccc(O)c(/C=N/NC(=O)c2ccc3c4c(ccc3c2)N2Cc3c(ccc5cc(C(=O)N/N=C/c6cc(C(=O)OC)ccc6O)ccc35)N(C4)C2)c1 = 28.2
• O=C(NN=C(c1ccccn1)c1ccccn1)c1ccc2c3c(ccc2c1)N1Cc2c(ccc4cc(C(=O)NN=C(c5ccccn5)c5ccccn5)ccc24)N(C3)C1 = 2.08
• O=C(N/N=C/c1cc(O)ccc1O)c1ccc2c3c(ccc2c1)N1Cc2c(ccc4cc(C(=O)N/N=C/c5cc(O)ccc5O)ccc24)N(C3)C1 = 2.59
• Cc1ccc(O)c(/C=N/NC(=O)c2ccc3c4c(ccc3c2)N2Cc3c(ccc5cc(C(=O)N/N=C/c6cc(C)ccc6O)ccc35)N(C4)C2)c1 = 5.36
• O=C(N/N=C/c1ccccc1O)c1ccc2c3c(ccc2c1)N1Cc2c(ccc4cc(C(=O)N/N=C/c5ccccc5O)ccc24)N(C3)C1 = 4.25
• O=C(N/N=C/c1nccc2ccccc12)c1ccc2c3c(ccc2c1)N1Cc2c(ccc4cc(C(=O)N/N=C/c5nccc6ccccc56)ccc24)N(C3)C1 = 6.29
• COc1ccc(O)c(/C=N/NC(=O)c2ccc3c4c(ccc3c2)N2Cc3c(ccc5cc(C(=O)N/N=C/c6cc(OC)ccc6O)ccc35)N(C4)C2)c1 = 2.14

====

# Tested on: BJ
# method: Selectivity index, ratio of IC50 for human BJ cells to IC50 for human CCRF-CEM cells
# Type: functional
# applied_conditions: pooled result: one value given for 2 cell lines, strains, targets or settings
molecules and their reported Ratio IC50
measured_parameter: Ratio IC50

- O=C(N/N=C/c1cc(Cl)ccc1O)c1ccc2c3c(ccc2c1)N1Cc2c(ccc4cc(C(=O)N/N=C/c5cc(Cl)ccc5O)ccc24)N(C3)C1: 2.4
- O=C(N/N=C/c1cc([N+](=O)[O-])ccc1O)c1ccc2c3c(ccc2c1)N1Cc2c(ccc4cc(C(=O)N/N=C/c5cc([N+](=O)[O-])ccc5O)ccc24)N(C3)C1: 0.9
- O=C(N/N=C/c1ccccc1O)c1ccc2c3c(ccc2c1)N1Cc2c(ccc4cc(C(=O)N/N=C/c5ccccc5O)ccc24)N(C3)C1: 0.9
- COc1ccc(O)c(/C=N/NC(=O)c2ccc3c4c(ccc3c2)N2Cc3c(ccc5cc(C(=O)N/N=C/c6cc(OC)ccc6O)ccc35)N(C4)C2)c1: 162.3
- O=C(N/N=C/c1nccc2ccccc12)c1ccc2c3c(ccc2c1)N1Cc2c(ccc4cc(C(=O)N/N=C/c5nccc6ccccc56)ccc24)N(C3)C1: 172
- COc1cccnc1/C=N/NC(=O)c1ccc2c3c(ccc2c1)N1Cc2c(ccc4cc(C(=O)N/N=C/c5ncccc5OC)ccc24)N(C3)C1: 2.7
- O=C(N/N=C/c1cc(O)ccc1O)c1ccc2c3c(ccc2c1)N1Cc2c(ccc4cc(C(=O)N/N=C/c5cc(O)ccc5O)ccc24)N(C3)C1: 63.2
- Cc1ccc(O)c(/C=N/NC(=O)c2ccc3c4c(ccc3c2)N2Cc3c(ccc5cc(C(=O)N/N=C/c6cc(C)ccc6O)ccc35)N(C4)C2)c1: 0.8
- COC(=O)c1ccc(O)c(/C=N/NC(=O)c2ccc3c4c(ccc3c2)N2Cc3c(ccc5cc(C(=O)N/N=C/c6cc(C(=O)OC)ccc6O)ccc35)N(C4)C2)c1: 16.3
- O=C(NN=C(c1ccccn1)c1ccccn1)c1ccc2c3c(ccc2c1)N1Cc2c(ccc4cc(C(=O)NN=C(c5ccccn5)c5ccccn5)ccc24)N(C3)C1: 1.7
- O=C(N/N=C/c1cc(F)ccc1O)c1ccc2c3c(ccc2c1)N1Cc2c(ccc4cc(C(=O)N/N=C/c5cc(F)ccc5O)ccc24)N(C3)C1: 26.3

====

# System: CCRF-CEM
# method: Cell cycle arrest in human CCRF-CEM cells assessed as accumulation at G2/M phase at IC50 after 24 hrs by propidium iodide staining-based flow cytometry
# Format: functional
measured_parameter: Activity (%)

• O=C(N/N=C/c1ccccc1O)c1ccc2c3c(ccc2c1)N1Cc2c(ccc4cc(C(=O)N/N=C/c5ccccc5O)ccc24)N(C3)C1 = 19.09
• Cc1ccc(O)c(/C=N/NC(=O)c2ccc3c4c(ccc3c2)N2Cc3c(ccc5cc(C(=O)N/N=C/c6cc(C)ccc6O)ccc35)N(C4)C2)c1 = 14.65
• COC(=O)c1ccc(O)c(/C=N/NC(=O)c2ccc3c4c(ccc3c2)N2Cc3c(ccc5cc(C(=O)N/N=C/c6cc(C(=O)OC)ccc6O)ccc35)N(C4)C2)c1 = 12.83
• O=C(N/N=C/c1nccc2ccccc12)c1ccc2c3c(ccc2c1)N1Cc2c(ccc4cc(C(=O)N/N=C/c5nccc6ccccc56)ccc24)N(C3)C1 = 15.35
• O=C(NN=C(c1ccccn1)c1ccccn1)c1ccc2c3c(ccc2c1)N1Cc2c(ccc4cc(C(=O)NN=C(c5ccccn5)c5ccccn5)ccc24)N(C3)C1 = 10.49
• O=C(N/N=C/c1cc(F)ccc1O)c1ccc2c3c(ccc2c1)N1Cc2c(ccc4cc(C(=O)N/N=C/c5cc(F)ccc5O)ccc24)N(C3)C1 = 13.05
• O=C(N/N=C/c1cc(O)ccc1O)c1ccc2c3c(ccc2c1)N1Cc2c(ccc4cc(C(=O)N/N=C/c5cc(O)ccc5O)ccc24)N(C3)C1 = 17.9
• COc1ccc(O)c(/C=N/NC(=O)c2ccc3c4c(ccc3c2)N2Cc3c(ccc5cc(C(=O)N/N=C/c6cc(OC)ccc6O)ccc35)N(C4)C2)c1 = 15.97
